Tested system: M1 muscarinic receptor (Homo sapiens, UniProt P11229)
Construct: expressed in transfected cells; host or cells: CHO (M1-CHO)
Sequence (P11229 whole entry): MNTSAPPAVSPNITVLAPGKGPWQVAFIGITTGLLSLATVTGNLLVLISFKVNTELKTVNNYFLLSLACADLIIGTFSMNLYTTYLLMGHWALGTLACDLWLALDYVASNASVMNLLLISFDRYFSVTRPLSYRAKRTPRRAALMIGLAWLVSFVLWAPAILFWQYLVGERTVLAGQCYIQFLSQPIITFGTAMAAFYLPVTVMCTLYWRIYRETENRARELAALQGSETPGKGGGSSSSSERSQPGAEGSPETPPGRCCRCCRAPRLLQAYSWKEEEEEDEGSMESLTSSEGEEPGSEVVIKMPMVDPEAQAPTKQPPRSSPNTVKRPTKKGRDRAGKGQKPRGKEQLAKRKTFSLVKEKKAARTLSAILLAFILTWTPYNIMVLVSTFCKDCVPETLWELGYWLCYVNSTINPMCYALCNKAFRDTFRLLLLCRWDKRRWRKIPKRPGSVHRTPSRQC
Protocol description: Functional mobilization of intracellular calcium (FLIPR) in CHO cells expressing M1
Assay type: cell-based
Condition context: CHO; 100% = maximum response obtained with the Carbachol control; read-out: M1 Efficacy
Property name: Emax

• CC(=O)N1CCC[C@H]1C(=O)N[C@@H]1CCC2(CCN(CCC(C)(C)C)CC2)c2ccccc21 [compound 84] = 25 to 100%
• CC(=O)N1CCCC(C(=O)N[C@@H]2CCC3(CCN(CCC(C)(C)C)CC3)c3ccccc32)C1 (stereo partly drawn) [compound 143] = 25 to 100%
• C[C@H](C(=O)N[C@@H]1CCC2(CCN(CCC(C)(C)C)CC2)c2ccccc21)N1CCCC1=O [compound 157] = 25 to 100%
• CC[C@@H](C)CN1CCC2(CC[C@H](NC(C)=O)c3ccccc32)CC1 [compound 56] = 25 to 100%
• CC#CCN(C(C)=O)[C@H]1CCC2(CCN(CCC(C)(C)C)CC2)c2ccccc21 [compound 43] = 25 to 100%
• CC(C)(C)CCN1CCC2(CC[C@H](NC(=O)Cc3cccnc3)c3ccc(F)cc32)CC1 [compound 79] = 25 to 100%
• CCN(C(=O)C1CCN(C(=O)OC)CC1)[C@H]1CCC2(CCN(CCC(C)(C)C)CC2)c2ccccc21 [compound 166] = 25 to 100%
• CCOCC(=O)N[C@@H]1CCC2(CCN(CCC(C)(C)C)CC2)c2ccccc21 [compound 99] = < 25%
• CC(C)(C)CCN1CCC2(CC[C@@H](NC(=O)CC3CCOCC3)c3ccc(F)cc32)CC1 [compound 93] = 25 to 100%
• CC(=O)NCC(=O)N[C@H]1CCC2(CCN(CCC(C)(C)C)CC2)c2cc(F)ccc21 [compound 33] = 25 to 100%
• CC(C)C[C@@H](C(=O)N[C@@H]1CCC2(CCN(CCC(C)(C)C)CC2)c2ccccc21)N1CCCC1=O [compound 182] = 25 to 100%
• CC(=O)NCCC(=O)N[C@@H]1CCC2(CCN(CCC(C)(C)C)CC2)c2cc(F)ccc21 [compound 20] = 25 to 100%
• CC(=O)N[C@H]1CCC2(CCN(CCC(C)(C)C)CC2)c2cc(F)ccc21 [compound 177] = 25 to 100%
• CC(=O)N(C(C)C)[C@H]1CCC2(CCN(CCC(C)(C)C)CC2)c2cc(F)ccc21 [compound 86] = 25 to 100%
• CCC(=O)N1CCCC(C(=O)N[C@@H]2CCC3(CCN(CCC(C)(C)C)CC3)c3ccccc32)C1 (stereo partly drawn) [compound 13] = < 25%
• Cc1cc(C(=O)N[C@@H]2CCC3(CCN(CCC(C)(C)C)CC3)c3cc(F)ccc32)nn1C [compound 40] = 25 to 100%
• CC(C)(C)CCN1CCC2(CC[C@@H](NC(=O)CC3CCOCC3)c3ccccc32)CC1 [compound 152] = < 25%
• CCC(CC)CN1CCC2(CC[C@H](NC(C)=O)c3ccccc32)CC1 [compound 73] = 25 to 100%
• CC(C)(C)CCN1CCC2(CC[C@@H](NC(=O)C3CCCN(C(=O)C4CC4)C3)c3ccccc32)CC1 (stereo partly drawn) [compound 55] = < 25%
• CCN(C(=O)C1CCCN1C(C)=O)[C@H]1CCC2(CCN(CCC(C)(C)C)CC2)c2ccccc21 (stereo partly drawn) [compound 15] = 25 to 100%
• CC(C)[C@@H](C(=O)N[C@@H]1CCC2(CCN(CCC(C)(C)C)CC2)c2ccccc21)N1CCCC1=O [compound 126] = < 25%
• Cn1cncc1C(=O)N[C@@H]1CCC2(CCN(CCC(C)(C)C)CC2)c2ccccc21 [compound 118] = 25 to 100%
• CSC(C)CCN1CCC2(CC[C@H](NC(C)=O)c3ccccc32)CC1 (stereo partly drawn) [compound 49] = 25 to 100%
• CC(C)(C)CCN1CCC2(CC[C@H](N3CCCCC3=O)c3ccccc32)CC1 [compound 57] = 25 to 100%
• CC(=O)N1CCC[C@@H]1C(=O)N[C@H]1CCC2(CCN(CCC(C)(C)C)CC2)c2ccccc21 [compound 160] = 25 to 100%
• CCN(C(=O)c1cncn1C)[C@@H]1CCC2(CCN(CCC(C)(C)C)CC2)c2ccccc21 [compound 101] = 25 to 100%
• C[C@@H](O)CC(=O)N[C@@H]1CCC2(CCN(CCC(C)(C)C)CC2)c2ccccc21 [compound 139] = < 25%
• CC(C)(C)CCN1CCC2(CC[C@H](NC(=O)CCOC(C)(C)C)c3ccccc32)CC1 [compound 88] = 25 to 100%
• CC(=O)N[C@H](C)C(=O)N[C@H]1CCC2(CCN(CCC(C)(C)C)CC2)c2cc(F)ccc21 [compound 46] = 25 to 100%
• CC(C)(C)CCN1CCC2(CC[C@H](NC(=O)C3CCCO3)c3ccccc32)CC1 (stereo partly drawn) [compound 31] = 25 to 100%
